Reference for the values: patent US7495104B2

biological target: Bek (Homo sapiens); experiment: Inhibitory activity against Bek-autophosphorylation using ELISA method in OCUM-2MD3 cells; conditions: 1 hr with compound, read-out: IC50 (concentration necessary for inhibiting 50% of Bek-phosphorylation)
Reported pIC50 values follow for various compounds
Just so you know, pIC50 here is -log10 of the concentration in molar units; reply with that number alone.

Example compounds with recorded pIC50:
1. COc1cc2c(Oc3ccc(NC(=O)NCCC(C)(C)C)cc3Cl)ccnc2cc1OCCN1CCC(CCO)CC1 = 6.88
2. COc1cc2c(Oc3ccc(NC(=O)NCCC(C)(C)C)c(Cl)c3)ccnc2cc1OCCN1CCCN(C)CC1 = 7.74
3. COc1cc2nccc(Oc3ccc(NC(=O)NC4CC(C)CC(C)(C)C4)cc3)c2cc1OC (stereo not shown) = 7.51

q: Give the reported pIC50 for COc1cc2c(Oc3ccc(Nc4ccc(C(C)(C)C)cc4)cc3)ccnc2cc1OCC(O)CN1CCN(C)CC1 (stereo not shown) (system: Bek (Homo sapiens)).
a: 6.75

q: Next compound up: COc1cc2c(Oc3ccc(NC(=O)NCCC(C)(C)C)c(F)c3)ccnc2cc1OCCN1C(C)CCCC1C (stereo not shown)
a: 6.79

q: Next compound up: COc1cc2c(Oc3ccc(Nc4ccc(C(C)(C)C)cc4)cc3)ccnc2cc1OCCNCC1CCCO1 (stereo not shown)
a: 6.45

* * *

Reported IC50 values follow for various compounds
Target: Bek (Homo sapiens)
Assay: Inhibitory activity against Bek-autophosphorylation using ELISA method in OCUM-2MD3 cells
Conditions: 1 hr with compound, read-out: IC50 (concentration necessary for inhibiting 50% of Bek-phosphorylation)
Method: Human scirrhus stomach cancer cells OCUM-2MD3 (kindly provided by Dr. Kosei Hirakawa, Osaka City University) were cultured in an RPMI medium containing 10% fetal calf serum (purchased from ICN) within a 5% carbon dioxide incubator until 50 to 90% confluent. The harvested cells were seeded onto 96-well flat-bottom plate in RPMI containing 0.1% fetal calf serum at 3.5×10^4 cells per well, followed by cultivation at 37° C. overnight. […]
Report only the number, with the unit µM understood.

Example compounds with recorded IC50:
1. CCN(CC)CC(O)COc1cc2nccc(Oc3ccc(NC(=O)NCCC(C)(C)C)c(Cl)c3)c2cc1OC (stereo not shown) = 0.0106
2. COc1cc2c(Oc3ccc(Nc4ccc(C(C)(C)C)cc4)cc3)ccnc2cc1OCCC(C)N1CCOCC1 (stereo not shown) = 0.151
3. COc1cc2c(Oc3ccc(NC(=O)NCCC(C)(C)C)c(Cl)c3)ccnc2cc1OCC(O)CN1CCOCC1 (stereo not shown) [Compound 206] = 0.0185

q: Requested read-out: IC50. Entry: COc1cc2c(Oc3ccc(NC(=O)NCCC(C)(C)C)c(Cl)c3)ccnc2cc1OCCN(C)C
a: 0.039

* * *

molecular target: Bek (Homo sapiens); experiment: Inhibitory activity against Bek-autophosphorylation using ELISA method in OCUM-2MD3 cells; conditions: 1 hr with compound, read-out: IC50 (concentration necessary for inhibiting 50% of Bek-phosphorylation)
ENDPOINT_LABEL: log10 IC50 (log10 of the value in nM)
Hi team, quick reminder: these entries are log10 of IC50 (nM).

Example molecules with recorded log10 IC50:
1) COc1cc2c(Oc3ccc(NC(=O)NCCC(C)(C)C)cc3)ccnc2cc1OCCN1CCC(c2ccccc2)CC1 = 1.94
2) COc1cc2c(Oc3ccc(NC(=O)NCCC(C)(C)C)c(Cl)c3)ccnc2cc1OCCCN1CCC(CCO)CC1 = 1.43

q: Requested read-out: log10 IC50. Entry: COc1cc2nccc(Oc3cc(C)c(NC(=O)NCCC(C)(C)C)cc3C)c2cc1OC
a: 2.42

q: Next molecule up: COc1cc2nccc(Oc3ccc(Nc4ccc(C(C)(C)C)cc4)cc3OC)c2cc1OC
a: 2.63

q: Next molecule up: COc1cc2c(Oc3ccc(Nc4ccc(C(C)(C)C)cc4)cc3)ccnc2cc1OCCC1CCCN1C (centres unmarked)
a: 3.40

* * *

target: Bek (Homo sapiens, UniProt P21802); assay: Inhibitory activity against Bek-autophosphorylation using ELISA method in OCUM-2MD3 cells; conditions: 1 hr with compound, read-out: IC50 (concentration necessary for inhibiting 50% of Bek-phosphorylation)
Sequence (P21802 431-767 limits assumed): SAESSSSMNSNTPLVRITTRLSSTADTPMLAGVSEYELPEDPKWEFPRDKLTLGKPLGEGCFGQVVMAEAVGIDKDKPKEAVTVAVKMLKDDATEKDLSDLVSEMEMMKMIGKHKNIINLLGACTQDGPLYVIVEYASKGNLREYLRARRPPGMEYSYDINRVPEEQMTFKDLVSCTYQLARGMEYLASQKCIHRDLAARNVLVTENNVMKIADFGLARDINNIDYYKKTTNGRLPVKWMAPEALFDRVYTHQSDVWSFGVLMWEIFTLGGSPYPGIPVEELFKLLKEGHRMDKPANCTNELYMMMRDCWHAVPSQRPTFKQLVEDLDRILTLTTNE
Counter-ions that a name gives are not always drawn.
ENDPOINT_LABEL: pIC50
Just so you know, pIC50 here is -log10 of the concentration in molar units; reply with that number alone.

1. COc1cc2c(Oc3ccc(NC(=O)NCCC(C)(C)C)cc3)ccnc2cc1OCCCCCl = 6.62
2. COc1cc2nccc(Oc3ccc(C(OC(C)=O)c4ccc(C(C)(C)C)cc4)cc3)c2cc1OC (stereo not drawn) = 6.00
3. COc1cc2c(Oc3ccc(Nc4ccc(C(C)(C)C)cc4)cc3)ccnc2cc1OCC(O)CN1CCOCC1 (stereo not drawn) = 6.85
4. CCN(CC)CCCOc1cc2nccc(Oc3ccc(Nc4ccc(C(C)(C)C)cc4)cc3)c2cc1OC = 6.61
5. COc1cc2c(Oc3ccc(NC(=O)NCCC(C)(C)C)c(Cl)c3)ccnc2cc1OCCCN1CCC(O)CC1 = 7.80
6. COc1cc2c(Oc3ccc(NC(=O)NCCC(C)(C)C)cc3)ccnc2cc1OCCCN1CCC(N2CCCCC2)CC1 = 7.90
7. COc1cc2c(Oc3ccc(NC(=O)NCCC(C)(C)C)cc3F)ccnc2cc1OCCN1C(C)CCCC1C (stereo not drawn) = 6.83
8. COc1cc2nccc(Oc3cc(C)c(Nc4ccc(C(C)(C)C)cc4)cc3C)c2cc1OC = 5.25
9. COc1cc2c(Oc3ccc(NC(=O)NCCC(C)(C)C)c(Cl)c3)ccnc2cc1OCCN1C(=O)c2ccccc2C1=O = 6.82
10. COc1cc2c(Oc3ccc(NC(=O)NCCC(C)(C)C)c(F)c3)ccnc2cc1OCCN(C)CCO = 7.75

q: Requested read-out: pIC50. Entry: COc1cc2c(Oc3ccc(NC(=O)NCCC(C)(C)C)cc3Cl)ccnc2cc1OCCN1CCC(CO)CC1
a: 7.69

q: Next compound up: COc1cc2c(Oc3ccc(NC(=O)NCCC(C)(C)C)c(Cl)c3)ccnc2cc1OCC(O)CN1CCCC1 (stereo not drawn)
a: 8.04

q: Next compound up: COc1cc2c(Oc3ccc(NC(=O)NCCC(C)(C)C)cc3)ccnc2cc1OCCN1CCN(C)CC1 [Compound 113, hydrochloride]
a: 8.00

* * *

molecular target: Bek (Homo sapiens, UniProt P21802); assay: Inhibitory activity against Bek-autophosphorylation using ELISA method in OCUM-2MD3 cells; conditions: 1 hr with compound, read-out: IC50 (concentration necessary for inhibiting 50% of Bek-phosphorylation)
Where a name gives a salt, the structure may show the parent alone.
ENDPOINT_LABEL: pIC50
Just so you know, pIC50 here is -log10 of the concentration in molar units; reply with that number alone.

Example compounds with recorded pIC50:
1) COc1cc2c(Oc3ccc(NC(=O)NCCC(C)(C)C)cc3)ccnc2cc1OCCCCN1CCCCC1 [Compound 157, hydrochloride] = 7.55
2) COc1cc2nccc(Oc3ccc(Nc4ccc(C(C)(C)C)cc4)cc3)c2cc1OCCN1CCOCC1 = 6.86
3) COc1cc2c(Oc3ccc(NC(=O)NCCC(C)(C)C)c(Cl)c3)ccnc2cc1OCCCCCl = 6.60
4) CCNCC(O)COc1cc2nccc(Oc3ccc(NC(=O)NCCC(C)(C)C)c(Cl)c3)c2cc1OC (centres unmarked) = 7.91

q: Requested read-out: pIC50. Entry: COc1cc2c(Oc3ccc(Nc4ccc(C(C)(C)C)cc4)cc3)ccnc2cc1OCC(O)CN1CCC(N2CCCC2)CC1 (centres unmarked)
a: 7.33

q: Next compound up: COc1cc2nccc(Oc3ccc(NC(=O)NCCC(C)(C)C)cc3)c2cc1OCCN(C)C
a: 7.61

q: Next compound up: CCCCc1ccc(Nc2ccc(Oc3ccnc4cc(OC)c(OC)cc34)cc2)cc1
a: 5.82

q: Next compound up: COc1cc2c(Oc3ccc(NC(=O)NCCC(C)(C)C)cc3F)ccnc2cc1OCCCN1CCC(CCO)CC1
a: 7.38

* * *

molecular target: Bek (Homo sapiens); assay: Inhibitory activity against Bek-autophosphorylation using ELISA method in OCUM-2MD3 cells; type: cell-based; conditions: 1 hr with compound, read-out: IC50 (concentration necessary for inhibiting 50% of Bek-phosphorylation)
# MET = IC50 below 300 nM (exclusive); NOT MET = IC50 at/above 300 nM

Worked set:
1) COc1cc2nccc(Oc3ccc(Oc4ccc(C(C)(C)C)cc4)cc3)c2cc1OC = NOT MET
2) COc1cc2c(Oc3ccc(NC(=O)NCCC(C)(C)C)c(Cl)c3)ccnc2cc1OCCCN(C)CCO = MET
3) COc1cc2c(Oc3ccc(NC(=O)NCCC(C)(C)C)cc3Cl)ccnc2cc1OCCCN1CC(C)OC(C)C1 (stereo not shown) = MET
4) COc1cc2c(Oc3ccc(NC(=O)NCCC(C)(C)C)c(Cl)c3)ccnc2cc1OCCCN1CCCN(C)CC1 = MET

q: Does this compound meet the criterion IC50 < 300 nM? COc1cc2c(Oc3ccc(Nc4ccc(C(C)(C)C)cc4)cc3)ccnc2cc1OCCN(CCO)C1CCCCC1
a: MET

q: Next compound up: COc1cc2c(Oc3ccc(NC(=O)NCCC(C)(C)C)c(Cl)c3)ccnc2cc1OCCCCN1C(=O)c2ccccc2C1=O
a: MET

q: Next compound up: COc1cc2nccc(Oc3ccc(Nc4ccc(C(C)(C)C)cc4)cc3)c2cc1OCCNCCO
a: NOT MET
